The values you see were collected from patent US20220332706A1.

# TEST_PROTOCOL: Solubility assessment, visually estimated by dosing solvent aliquots into 10.0 mg API
# Assay type: physicochemical
# EXPERIMENTAL_SETUP: organic solvent or mixture, thermodynamic from solid; MTBE, 40° C.; read-out: Solubility at 40° C.
# Experimental: Solubility was assessed in an array of diverse solvents in order to facilitate the selection of solvent systems and corresponding dosing strategies for the subsequent crystal-form screening experiments.
ATTRIBUTE_MEASURED: solubility

Measured solubility of Cc1cnc(Nc2ccc(OCCN3CCCC3)cc2)nc1Nc1cccc(S(=O)(=O)NC(C)(C)C)c1 [Form A] : < 5000 µg/mL

----------
# TEST_PROTOCOL: Solubility assessment, visually estimated by dosing solvent aliquots into 10.0 mg API
# Type: physicochemical
# EXPERIMENTAL_SETUP: organic solvent or mixture, thermodynamic from solid; MeOH, RT; read-out: Solubility at RT
ATTRIBUTE_MEASURED: solubility

Measured solubility of Cc1cnc(Nc2ccc(OCCN3CCCC3)cc2)nc1Nc1cccc(S(=O)(=O)NC(C)(C)C)c1 [Form A] : > 400 mg/mL
